system: HL-60; assay: Anti-proliferative activity, CTG assay, HL-60 cells; format: cell-based; conditions: Homo sapiens, HL-60, 72 h
pIC50: −log10 of the molar value.
ENDPOINT_LABEL: pIC50

Measured pIC50, COC(=O)[C@@H]1CCCN1S(=O)(=O)c1ccc(-c2ccc(NC(=O)CN)nc2)cc1 [13d] : 4.98

Measured pIC50, COC(=O)[C@@H]1CCCN1S(=O)(=O)c1ccc(-c2ccc(NC(=O)[C@@H](C)N)cc2)cc1 [13b] : 4.99

A. COC(=O)C1CCCN1S(=O)(=O)c1ccc(-c2ccc(NC(=O)CN)cc2)cc1 (stereo not shown) [7a]
B. COC(=O)[C@@H]1CCCN1S(=O)(=O)c1ccc(-c2ccc(NC(=O)[C@H](C)N)cc2)cc1 [13c]
Asked: Return label of the item with the larger pIC50. Candidates: A , B . Provide the label of your selected option as the answer.
Given back: A
(A: 4.97, B: 4.51)

* * *

system: RPMI 8226; assay: Anti-proliferative activity, CTG assay, RPMI 8226 cells; format: cell-based; settings: Homo sapiens, RPMI-8226, 72 h, 50 μM, read-out: Inhibition rate RPMI 8226 (%)
ENDPOINT_LABEL: inhibition at 50 µM (%)
Express the result in % but write the number alone.

Worked set:
Measured inhibition at 50 µM, COC(=O)[C@H]1CCCN1S(=O)(=O)c1ccc(-c2ccc(NC(=O)[C@@H](C)N)nc2)cc1 : 24.4

Measured inhibition at 50 µM, COC(=O)[C@@H]1CCCN1S(=O)(=O)c1ccc(-c2ccc(NC(=O)CN)nc2)cc1 [13d] : 92.3

Measured inhibition at 50 µM, COC(=O)[C@H]1CCCN1S(=O)(=O)c1ccc(-c2ccc(NC(=O)[C@H](C)N)cc2)cc1 : 49.7

Now take the following molecule into account.
Measured inhibition at 50 µM, COC(=O)[C@H]1CCCN1S(=O)(=O)c1ccc(-c2ccc(NC(=O)[C@@H](C)N)cc2)cc1 : 41.4

* * *

Listed below: melting point values for each entry.

Measured melting point, COC(=O)[C@H]1CCCN1S(=O)(=O)c1ccc(-c2ccc(NC(=O)CN)nc2)cc1 [7d] : 170.2 to 173.5 °C

Measured melting point, COC(=O)[C@@H]1CCCN1S(=O)(=O)c1ccc(-c2ccc(NC(=O)CN)nc2)cc1 [13d] : 170.3 to 172.9 °C

Measured melting point, COC(=O)[C@@H]1CCCN1S(=O)(=O)c1ccc(-c2ccc(NC(=O)[C@@H](C)N)cc2)cc1 [13b] : 156.4 to 159.1 °C

* * *

tested on: HL-7702; test: Cytotoxicity toward human normal liver cells HL-7702, CTG assay; assay type: cell-based; conditions: 72 h, read-out: 50% cytotoxic concentration (CC50) HL-7702
ENDPOINT_LABEL: CC50 (µM)
Express the result in µM but write the number alone.

Form field, CC50 with HL-7702, item COC(=O)C1CCCN1S(=O)(=O)c1ccc(-c2ccc(NC(=O)CN)cc2)cc1 (stereo not shown) [13a] : 27.5

* * *

Listed below: inhibition at 50 µM values for each entry.
system: Hela; assay: Anti-proliferative activity, CTG assay, Hela cells; assay type: cell-based; conditions: Homo sapiens, HeLa, 72 h, 50 μM, read-out: Inhibition rate Hela (%)
Express the result in % but write the number alone.

Worked set:
Measured inhibition at 50 µM, COC(=O)[C@@H]1CCCN1S(=O)(=O)c1ccc(-c2ccc(NC(=O)[C@@H](C)N)nc2)cc1 [13e] : 81.6

Measured inhibition at 50 µM, COC(=O)[C@H]1CCCN1S(=O)(=O)c1ccc(-c2ccc(NC(=O)[C@@H](C)N)cc2)cc1 [7b] : 2.44

Measured inhibition at 50 µM, COC(=O)[C@H]1CCCN1S(=O)(=O)c1ccc(-c2ccc(NC(=O)CN)nc2)cc1 [7d] : 41.8

---
Measured inhibition at 50 µM, COC(=O)C1CCCN1S(=O)(=O)c1ccc(-c2ccc(NC(=O)CN)cc2)cc1 (centres unmarked) [13a] : 99.7

Measured inhibition at 50 µM, COC(=O)[C@@H]1CCCN1S(=O)(=O)c1ccc(-c2ccc(NC(=O)CN)nc2)cc1 [13d] : 33.4

Measured inhibition at 50 µM, COC(=O)[C@@H]1CCCN1S(=O)(=O)c1ccc(-c2ccc(NC(=O)[C@H](C)N)nc2)cc1 [13f] : 91.6
